Source of measurements: patent US7745437B2

target or test system: E255V Bcr-abl (Homo sapiens, UniProt P00519, E255V)
Construct: the other entry of the earlier key: BCR (P11274, Breakpoint cluster region protein)
measurement protocol: Proliferation of Ba/F3 cells expressing mutant Bcr-abl E255V
Protocol: 32D-p210 cells are plated into 96 well TC plates at a density of 15,000 cells per well. 50 μL of two fold serial dilutions of the test compound (Cmax is 40 μM) are added to each well (STI571 is included as a positive control). After incubating the cells for 48 hours at 37° C., 5% CO2, 15 μL of MTT (Promega) is added to each well and the cells are incubated for an additional 5 hours. […]
readout name: IC50 (nM)
Report the value in nM with no unit label.

Given the entry Cc1cn(-c2cc(C(=O)Nc3ccc(C)c(Nc4nccn4-c4cc(NC5CC5)ncn4)c3)cc(C(F)(F)F)c2)cn1 [Compound 27] , report its measured IC50.
36

----------
target or test system: M351T Bcr-abl (Homo sapiens, UniProt P00519, M351T)
Construct: the other entry of the earlier key: BCR (P11274, Breakpoint cluster region protein)
measurement protocol: Proliferation of Ba/F3 cells expressing mutant Bcr-abl M351T
readout name: IC50

Given the entry `Cc1cn(-c2cc(C(=O)Nc3ccc(C)c(Nc4nccn4-c4cc(NC5CC5)ncn4)c3)cc(C(F)(F)F)c2)cn1` , report its measured IC50.
< 0.5 nM

----------
target or test system: wild type Bcr-abl (Homo sapiens)
Construct: the other entry of the earlier key: BCR (P11274, Breakpoint cluster region protein)
measurement protocol: Proliferation of Ba/F3 cells expressing wild type Bcr-abl
readout name: IC50

Given the entry `Cc1cn(-c2cc(C(=O)Nc3ccc(C)c(Nc4nccn4-c4cc(NC5CC5)ncn4)c3)cc(C(F)(F)F)c2)cn1` , report its measured IC50.
< 0.5 nM
